Attribution: paper PMC5540273

tested on: ICK; details: concentration: 1 μM, replicates: in singlicate; n = 1;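 also: KINOMEscan kinase panel screen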
Simple rule here: %Inh less than 3% is t, otherwise f.

[[record]]
compound = "CCn1c(-c2c(N)noc2C)nc2cnccc21"
label = "f"

[[record]]
compound = "O=c1cc(N2CCOCC2)nc2n(Cc3cccc(Cl)c3Cl)c3ccccc3n12"
label = "f"


Problem: Lab note: %Inh threshold 3%. Does this compound come in strictly under it? CNc1cc(-c2ccc3c(N)n[nH]c3c2)nc(N)n1
Solution: f

Problem: Lab note: %Inh threshold 3%. Does this compound come in strictly under it? NS(=O)(=O)c1cccc(N/C=C2\C(=O)Nc3ccc(S(=O)(=O)Cc4c(Cl)cccc4Cl)cc32)c1
Solution: f

Problem: Lab note: %Inh threshold 3%. Does this compound come in strictly under it? COc1ccc(CSc2nnc(-c3ccc4ncsc4c3)o2)cc1C(F)(F)F
Solution: t

Problem: Lab note: %Inh threshold 3%. Does this compound come in strictly under it? COc1ccc(CSc2nnc(-c3ccc4nccn4c3)o2)cc1C(F)(F)F
Solution: t

Problem: Lab note: %Inh threshold 3%. Does this compound come in strictly under it? Fc1ccc(-c2nn3cccc(F)c3c2-c2ccncc2)cc1
Solution: t

Problem: Lab note: %Inh threshold 3%. Does this compound come in strictly under it? CN1c2ccc(-c3ccc(C(N)=O)cc3)cc2-c2[nH]ncc2S1(=O)=O
Solution: t

Problem: Lab note: %Inh threshold 3%. Does this compound come in strictly under it? CC[C@@H]1CO[C@H](C(=O)Nc2ccccc2)CN1c1cc(-c2ccc3c(N)n[nH]c3c2)nc(NC)n1
Solution: t

Problem: Lab note: %Inh threshold 3%. Does this compound come in strictly under it? Cc1cccc2c(-c3ccncn3)c(-c3ccc(F)cc3)nn12
Solution: f

* * *

system: WEE2; details: concentration: 1 μM, replicates: in singlicate; n = 1
value type: %Inh (%)
Expressed in %, but write only the number.

[[record]]
compound = "Cc1ccc(NC(=O)c2ccc(Cl)cc2)cc1-c1ccc(C(=O)Nc2ccncc2)cc1"
system_name = "WEE2"
value_observed = 8

[[record]]
compound = "Cn1cncc1C(=O)NC1CCN(c2ccnc(Nc3ccc(F)cc3)n2)C1 (stereo not drawn)"
system_name = "WEE2"
value_observed = 0

[[record]]
compound = "COc1ccc2cc(-c3nc(-c4ccccc4C(C)C)[nH]c3-c3ccncc3)ccc2c1"
system_name = "WEE2"
value_observed = 15

[[record]]
compound = "Nc1nccc(-c2c(-c3ccc(F)cc3)ncn2C2CCN(Cc3ccccc3)CC2)n1"
system_name = "WEE2"
value_observed = 0


Problem: Request the reported %Inh associated with Cc1ccccc1-c1cc(-c2c[nH]nc2-c2ccccn2)ccn1
Solution: 0

Problem: Request the reported %Inh associated with COc1ccc(CSc2nnc(-c3ccc4ncsc4c3)o2)cc1C(F)(F)F
Solution: 0

Problem: Request the reported %Inh associated with Nc1cccc(-c2ccc3c(N)n[nH]c3c2)n1
Solution: 0

Problem: Request the reported %Inh associated with Cc1ccccc1Cn1ccn2c(=O)cc(N3CCOCC3)nc12
Solution: 0

Problem: Request the reported %Inh associated with COC(=O)c1cccc(NC(=O)NC2CCN(c3ccnc(Nc4ccc(F)cc4)n3)C2)c1 (stereo not drawn)
Solution: 5

* * *

tested on: PIM1; conditions: concentration: 1 μM, replicates: in singlicate; n = 1
Reported %Inh values for a set of compounds
Expressed in %, but write only the number.

Solved entries:
[[record]]
molecular_string = "Nc1ncnc2occ(-c3ccc4c(c3)CCN4C(=O)Cc3cc(F)ccc3F)c12"
value_observed = 0

[[record]]
molecular_string = "COc1ccc2cc(-c3nc(-c4ccccc4C(C)C)[nH]c3-c3ccncc3)ccc2c1"
value_observed = 15


Query compound follows.
Problem: Request the reported %Inh associated with O=C(Nc1n[nH]c2cc(-c3ccsc3)ccc12)C1CC1
Solution: 18

* * *

tested on: CDK2; details: concentration: 1 μM, replicates: in singlicate; n = 1
value type: %Inh (%)
Expressed in %, but write only the number.

Solved entries:
[[record]]
compound = "FC(F)(F)c1ccccc1-c1cc(-c2c[nH]nc2-c2ccccn2)ccn1"
value_observed = 0

[[record]]
compound = "Cc1nccc(-c2c(-c3ccc(F)cc3)ncn2CCCN2CCOCC2)n1.Cl"
value_observed = 37

[[record]]
compound = "COC(=O)c1cccc(NC(=O)NC2CCN(c3ccnc(Nc4ccc(OC)cc4)n3)C2)c1 (stereo not shown)"
value_observed = 5


Query compound follows.
Problem: Request the reported %Inh associated with Cc1c(Cn2c3ccccc3n3c(=O)cc(N4CCOCC4)nc23)cccc1C(F)(F)F
Solution: 0

* * *

test system: PRKR; construct: gene EIF2AK2; conditions: concentration: 1 μM, replicates: in singlicate; n = 1
value type: %Inh (%)
Expressed in %, but write only the number.

[[record]]
compound = "CCn1c(-c2ccccc2)nc2cnccc21"
value_type = "%Inh"
value_observed = 0

[[record]]
compound = "Cc1ccc(NC(=O)Nc2ccccc2)cc1-c1ccc(C(=O)Nc2ccncc2)cc1"
value_type = "%Inh"
value_observed = 0

[[record]]
compound = "Fc1ccc(-c2nc[nH]c2-c2ccncc2)cc1"
value_type = "%Inh"
value_observed = 0

[[record]]
compound = "COc1cccc(CNC(=O)NC2CCN(c3ccnc(Nc4ccc(F)cc4)n3)C2)c1 (stereo not drawn)"
value_type = "%Inh"
value_observed = 0

[[record]]
compound = "O=C(Nc1n[nH]c2nc(-c3cccs3)c(Br)cc12)C1CC1"
value_type = "%Inh"
value_observed = 0


Problem: Request the reported %Inh associated with Cc1cnc(N)c(/C=C/c2cncc(C(=O)NCCc3ccc(Cl)cc3Cl)c2)c1.Cl
Solution: 0

Problem: Request the reported %Inh associated with O=c1cc(N2CCOCC2)nc2n(Cc3ccccc3F)ccn12
Solution: 0

Problem: Request the reported %Inh associated with Nc1nccc(-c2c(-c3ccc(F)cc3)ncn2C2CCN(Cc3ccccc3)CC2)n1
Solution: 0

Problem: Request the reported %Inh associated with CS(=O)(=O)Cc1ccc(Nc2nccc(-c3c(-c4cccc(NC(=O)C5CCCCC5)c4)nn4ncccc34)n2)cc1
Solution: 0

* * *

system: AKT2; conditions: concentration: 1 μM, replicates: in singlicate; n = 1
Simple rule here: %Inh less than 8% is criterion met, otherwise criterion not met.

Solved cases (5 shown):
[[record]]
molecular_string = "FC(F)(F)c1ccccc1-c1cc(-c2c[nH]nc2-c2ccccn2)ccn1"
label = "criterion met"

[[record]]
molecular_string = "COc1ccc(Nc2nccc(-c3ccc(NC(=O)c4cc5cc(F)ccc5[nH]4)cc3)n2)cc1"
label = "criterion met"

[[record]]
molecular_string = "COc1ccc(Nc2nccc(NCCNC(=O)Nc3cc(C)ccc3C)n2)cc1"
label = "criterion met"

[[record]]
molecular_string = "Cc1cnc(N)c(/C=C/c2cncc(C(=O)NCCc3ccc(Cl)cc3Cl)c2)c1.Cl"
label = "criterion met"

[[record]]
molecular_string = "Fc1ccc(-c2nn3cccc(F)c3c2-c2ccncc2)cc1"
label = "criterion not met"


Problem: Lab note: %Inh threshold 8%. Does this molecule come in strictly under it? COc1cc2ncnc(Nc3cccc(Br)c3)c2cc1OC.Cl
Solution: criterion met

Problem: Lab note: %Inh threshold 8%. Does this molecule come in strictly under it? Cc1c(Cn2c3ccccc3n3c(=O)cc(N4CCOCC4)nc23)cccc1C(F)(F)F
Solution: criterion not met

Problem: Lab note: %Inh threshold 8%. Does this molecule come in strictly under it? Cc1ccccc1Cn1ccn2c(=O)cc(N3CCOCC3)nc12
Solution: criterion not met

Problem: Lab note: %Inh threshold 8%. Does this molecule come in strictly under it? Cc1c(Cn2c(C)c(C)n3c(=O)cc(N4CCOCC4)nc23)cccc1C(F)(F)F
Solution: criterion met

* * *

system: PKAC-beta; construct: gene PRKACB; settings: concentration: 1 μM, replicates: in singlicate; n = 1
value type: %Inh (%)
Expressed in %, but write only the number.

[[record]]
compound = "COc1ccc2cc(-c3nc(-c4ccccc4C(C)C)[nH]c3-c3ccncc3)ccc2c1"
value_observed = 3

[[record]]
compound = "O=C1NC(=O)C(c2ccc(Cl)cc2)=C1Nc1cccc(Cl)c1"
value_observed = 94.7


Problem: State its %Inh on PKAC-beta: COc1ccc(CSc2nnc(-c3ccc4nccn4c3)o2)cc1C(F)(F)F
Solution: 26

Problem: State its %Inh on PKAC-beta: O=C(Nc1n[nH]c2nc(-c3ccco3)c(Br)cc12)C1CCN(Cc2ccccc2)C1.O=C(O)[C@H](O)[C@@H](O)C(=O)O (centres unmarked)
Solution: 15

Problem: State its %Inh on PKAC-beta: COC(=O)c1cccc(NC(=O)NC2CCN(c3ccnc(Nc4ccc(OC)cc4)n3)C2)c1 (centres unmarked)
Solution: 0

Problem: State its %Inh on PKAC-beta: Cc1c(Cn2c3ccccc3n3c(=O)cc(N4CCOCC4)nc23)cccc1C(F)(F)F
Solution: 0

Problem: State its %Inh on PKAC-beta: Fc1ccc(-c2nc3n(c2-c2ccncc2)CCS3)cc1
Solution: 23
